Where do these numbers come from? They come from paper PMC10663500.

- experimentalSystem: T1, human programmed cell death protein 1 (hPD-1) C93S (aa 24-167) (Homo sapiens, UniProt Q15116, C93S)
- T1 construct: made as a fusion with a TEV site and human Fc; the Fc was cut off with TEV protease; source: Expi293F, purified (Protein A, TEV cleavage of Fc, SEC; monomer fractions); not shown: Fc (human), C-terminal, cleaved
- T1 sequence (Q15116 24-167 C93S): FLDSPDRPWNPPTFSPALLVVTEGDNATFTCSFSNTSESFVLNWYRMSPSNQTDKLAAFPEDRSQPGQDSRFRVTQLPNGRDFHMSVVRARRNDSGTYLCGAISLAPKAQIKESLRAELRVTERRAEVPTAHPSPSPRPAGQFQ
- experimentDescription: SPR; Carterra LSA; Fab from the ammonium sulfate precipitate of the culture supernatant immobilised on a NiHC200M chip; hPD-1 (1-1024 nM) or mPD-1-Fc (4-1024 nM) as analyte, fourfold dilution series, no regeneration; HBS-EP pH 7.4, 25 °C; medians over the spots of a construct, KD = koff/kon
- measurementConditions: one partner purified
Each entry below carries its reported kon.
parameter: kon

1) toripalimab Fab L.H98Y (Fab, V domains shown, as the heavy chain of Sm3; light chain of Sm3 with this change; numbers count from the chain's first residue; source: Brevibacillus, culture supernatant (ammonium sulfate precipitate); not shown: 6xHis, C-terminal, kept; 6xHN, C-terminal, kept) VH: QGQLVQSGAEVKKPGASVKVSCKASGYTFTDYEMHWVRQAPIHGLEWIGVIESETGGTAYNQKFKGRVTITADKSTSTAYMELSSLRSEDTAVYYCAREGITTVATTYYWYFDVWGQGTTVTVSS VL: DVVMTQSPLSLPVTLGQPASISCRSSQSIVHSNGNTYLEWYLQKPGQSPQLLIYKVSNRFSGVPDRFSGSGSGTDFTLKISRVEAEDVGVYYCFQGSYVPLTFGQGTKLEIK    18100 M⁻¹ s⁻¹
2) toripalimab Fab L.L101A (Fab, V domains shown, as the heavy chain of Sm3; light chain of Sm3 with this change; numbers count from the chain's first residue; source: Brevibacillus, culture supernatant (ammonium sulfate precipitate); not shown: 6xHis, C-terminal, kept; 6xHN, C-terminal, kept) VH: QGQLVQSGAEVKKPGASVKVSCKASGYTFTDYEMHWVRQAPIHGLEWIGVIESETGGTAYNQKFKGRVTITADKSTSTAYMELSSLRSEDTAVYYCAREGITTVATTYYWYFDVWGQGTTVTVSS VL: DVVMTQSPLSLPVTLGQPASISCRSSQSIVHSNGNTYLEWYLQKPGQSPQLLIYKVSNRFSGVPDRFSGSGSGTDFTLKISRVEAEDVGVYYCFQGSHVPATFGQGTKLEIK    6210 M⁻¹ s⁻¹
3) toripalimab Fab H.I51Y (Fab, V domains shown, heavy chain of Sm3 with this change; numbers count from the chain's first residue; as the light chain of Sm3; source: Brevibacillus, culture supernatant (ammonium sulfate precipitate); not shown: 6xHis, C-terminal, kept; 6xHN, C-terminal, kept) VH: QGQLVQSGAEVKKPGASVKVSCKASGYTFTDYEMHWVRQAPIHGLEWIGVYESETGGTAYNQKFKGRVTITADKSTSTAYMELSSLRSEDTAVYYCAREGITTVATTYYWYFDVWGQGTTVTVSS VL: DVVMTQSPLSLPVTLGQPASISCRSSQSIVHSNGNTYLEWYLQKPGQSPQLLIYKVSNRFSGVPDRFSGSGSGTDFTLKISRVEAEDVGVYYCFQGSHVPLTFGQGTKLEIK    37000 M⁻¹ s⁻¹
